molecular target: UniProtKB P53350; test: PLK1 protein kinase assay (CDC25C phosphorylation, [γ-32P]-ATP); assay type: biochemical; settings: Table 2, PLK1 IC50; class symbols; read-out: PLK1 IC50
Sequence (P53350 whole entry): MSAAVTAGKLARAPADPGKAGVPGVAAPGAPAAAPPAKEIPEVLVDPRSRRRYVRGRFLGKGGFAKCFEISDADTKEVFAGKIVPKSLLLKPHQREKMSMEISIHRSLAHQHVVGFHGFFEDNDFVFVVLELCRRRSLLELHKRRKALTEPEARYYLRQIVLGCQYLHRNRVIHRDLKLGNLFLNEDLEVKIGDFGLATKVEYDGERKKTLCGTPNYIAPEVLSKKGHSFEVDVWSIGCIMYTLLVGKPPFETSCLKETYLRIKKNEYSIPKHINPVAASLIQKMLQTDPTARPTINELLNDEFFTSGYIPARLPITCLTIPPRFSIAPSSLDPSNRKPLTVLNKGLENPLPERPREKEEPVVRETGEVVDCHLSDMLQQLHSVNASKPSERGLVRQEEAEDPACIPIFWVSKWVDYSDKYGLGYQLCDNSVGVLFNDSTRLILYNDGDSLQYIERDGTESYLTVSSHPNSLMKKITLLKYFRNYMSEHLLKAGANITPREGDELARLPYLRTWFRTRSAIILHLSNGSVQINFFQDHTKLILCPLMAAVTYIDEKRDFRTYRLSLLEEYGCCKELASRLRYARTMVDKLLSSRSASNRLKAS
pIC50: −log10 of the molar value.
Parameter pIC50: see the listing below.

Sample records with pIC50:
COc1cc(C(=O)NC2CCN(Cc3ccccc3)CC2)ccc1Nc1ncc2c(n1)N(C1CCCC1)CC1(CC1)C(=O)N2C [compound 252] ... > 6.00
CN1C(=O)CCN(C2CCCC2)c2nc(Nc3ccc4c(c3)NC(=O)CO4)ncc21 [compound 299] ... > 5.00
CCN(CC)CCNC(=O)c1ccc(Nc2ncc3c(n2)N(C2CCCC2)CCC(=O)N3C)c(OC)c1 [compound 148] ... > 7.00
COc1cc(C(=O)N[C@H]2CN3CCC2CC3)ccc1Nc1ncc2c(n1)N(C1CCCC1)CC1(CC1)C(=O)N2C [Compound 347] ... > 7.00
COc1ccc(C(=O)NCCc2c[nH]cn2)cc1Nc1ncc2c(n1)N(C1CCCC1)CCC(=O)N2C [compound 267] ... > 6.00

State, in one line, measured pIC50 of COc1cc(C(=O)NC2CCN(C(C)=O)CC2)ccc1Nc1ncc2c(n1)N(C1CCCC1)CCC(=O)N2C [compound 210]
> 6.00

Tell us which pIC50 value is on record for COc1cc(C(=O)NC2CN3CCC2CC3)ccc1Nc1ncc2c(n1)N(C1CCCC1)CCC(=O)N2C (stereo not drawn) [compound 161]
> 7.00

Report measured pIC50; entry is COCCNC(=O)c1ccc(OC)c(Nc2ncc3c(n2)N(C2CCCC2)CCC(=O)N3C)c1 [compound 270]
> 6.00

State its pIC50 for this compound: CN1CCC(NC(=O)c2ccc(Nc3ncc4c(n3)N(C3CCCC3)CCC(=O)N4C)c(O)c2)CC1 [compound 228]
> 7.00
